Experiment: Cytotoxicity against human CEM-TART cells after 4 days by MTT assay
Assay type: cell-based
Settings: 96 h
pIC50: −log10 of the molar value.
MEASURED PARAMETER: pIC50

>  <STRUCTURE NOTATION>
CC1=C[C@H]2C[C@@H](C)CC[C@@H]2[C@@](C)(C(=O)C2=C(O)[C@@H](CO)N(C)C2=O)[C@H]1/C=C/C=C/C[C@@H](C)O

>  <MEASURED PARAMETER>
pIC50

>  <ASSAY RESULT>
4.12

$$$$
>  <STRUCTURE NOTATION>
CC1=C[C@H]2C[C@@H](C)CC[C@@H]2[C@@](C)(C(=O)C2=C(O)[C@@H](CO)NC2=O)[C@H]1/C=C/C=C/C[C@@H](C)O

>  <MEASURED PARAMETER>
pIC50

>  <ASSAY RESULT>
3.95

$$$$
>  <STRUCTURE NOTATION>
CC1=C[C@@H]2C[C@@H](C)CC[C@@H]2[C@@](C)(C(=O)C2=C(O)[C@@H](CO)NC2=O)[C@@H]1/C=C/C=C/C[C@@H](C)O

>  <MEASURED PARAMETER>
pIC50

>  <ASSAY RESULT>
3.78

$$$$
